# assayed-system: HLA-A*0202 (human)
# protocol-notes: inhibition of 125I-labelled probe peptide binding to purified HLA; gel filtration
# test-settings: remark: other sources report otherwise
metric: IC50 (nM)

| binder | endpoint-value |
| --- | --- |
| ALFPPEGVSV (modifications not checked) [peptide 1419.61 (PAP.122.V10)] | 1 |

[1] PLLLWQPIPV (modifications not checked) [peptide 63.0042 (PAP.134.L2)]
[2] GLHGQDLFGI (modifications not checked) [peptide 1166.11 (PAP.196)]
[3] GVSIWNPILV (modifications not checked) [peptide 63.0041 (PAP.128.V10)]
[4] GVSIWNPIV (modifications not checked) [peptide 60.0207 (PAP.128.V9)]
## Input Please list these binders in decreasing order of IC50. Provide your answer as the labels ordered per the instruction.
## Output 4, 3, 1, 2
